Can you tell me T/C for the items I'm about to list?
test system: L1210 leukemia ip in BDF1 mice, survival T/C; assay: NCI In Vivo Anticancer Drug Screen. Data for tumor model L1210 Leukemia (intraperitoneal) in B6D2F1 (BDF1) mice; conditions: endpoint: mean survival time; dose: 100.0 mg/kg/injection; schedule: Q04DX003 (ip); vehicle: saline with Tween-80; higher = longer survival
Toxic doses and inconclusive results are not listed.

{"molecule": "CC(C)C(C=O)(CCN(C)Cc1ccccc1)c1cccc2ccccc12 (stereo not drawn)", "T/C": "93 % of control"}
{"molecule": "CC(C)Cc1ccc(OC(=O)Nc2ccc(Cl)cc2)cc1", "T/C": "95 % of control"}

Which measured T/C value corresponds to COc1ccc(C2NC(=O)NC2=O)cc1 (stereo not drawn) ?
108 % of control
